- TEST_METHOD_NOTES: Aqueous solubility
- Type: physicochemical
- PARTICULARS: water, compounds prepared as dihydrochloride salts
Structures can show the parent of a compound that is named as a salt.
MEASURED_ENDPOINT: solubility

O=S(=O)(CCCOc1ccc2[nH]c3nc(O)nc-3cc2c1)C1CCN(Cc2ccc(F)cc2)CC1 [Cmpd 17c, dihydrochloride]
> 10000 µg/mL
O=S(=O)(CCCOc1ccc2[nH]c3nc(O)nc-3cc2c1)C1CCN(CC2CCCCC2)CC1 [Cmpd 17d, dihydrochloride]
< 10000 µg/mL
O=S(=O)(CCCOc1ccc2[nH]c3nc(O)nc-3cc2c1)C1CCN(CCc2ccccc2)CC1 [Cmpd 17h, dihydrochloride]
< 5000 µg/mL
CCC(CC)CN1CCC(S(=O)(=O)CCCOc2ccc3nc4[nH]c(=O)[nH]c4cc3c2)CC1.Cl.Cl [Cmpd 17e]
< 10000 µg/mL
O=S(=O)(CCCOc1ccc2[nH]c3nc(O)nc-3cc2c1)C1CCN(CC2CCCCO2)CC1 (stereo not drawn) [Cmpd 17k, dihydrochloride]
> 10000 µg/mL
O=S(=O)(CCCOc1ccc2[nH]c3nc(O)nc-3cc2c1)C1CCN(Cc2cccc(C(F)(F)F)c2)CC1 [Cmpd 17i, dihydrochloride]
< 5000 µg/mL
CCC(CC)CN1CCC(S(=O)(=O)CCCCOc2ccc3[nH]c4nc(O)nc-4cc3c2)CC1 [l8e, dihydrochloride]
~5000 µg/mL
O=S(=O)(CCCOc1ccc2[nH]c3nc(O)nc-3cc2c1)C1CCN(CCC2CCCCC2)CC1 [Cmpd 17g, dihydrochloride]
< 5000 µg/mL
CC(C)CN1CCC(S(=O)(=O)CCCOc2ccc3[nH]c4nc(O)nc-4cc3c2)CC1 [Cmpd 17f, dihydrochloride]
> 10000 µg/mL
O=S(=O)(CCCOc1ccc2[nH]c3nc(O)nc-3cc2c1)C1CCNCC1 [Cmpd 17a, dihydrochloride]
> 10000 µg/mL
O=S(=O)(CCCCOc1ccc2[nH]c3nc(O)nc-3cc2c1)C1CCNCC1 [Cmpd 18a, dihydrochloride]
> 10000 µg/mL
O=S(=O)(CCCOc1ccc2[nH]c3nc(O)nc-3cc2c1)C1CCN(Cc2ccccc2)CC1 [Cmpd 17b, dihydrochloride]
> 10000 µg/mL
O=S(=O)(CCCCOc1ccc2[nH]c3nc(O)nc-3cc2c1)C1CCN(Cc2ccc(F)cc2)CC1 [l8c, dihydrochloride]
~2000 µg/mL
O=S(=O)(CCCCOc1ccc2[nH]c3nc(O)nc-3cc2c1)C1CCN(CC2CCCCC2)CC1 [Cmpd 18d, dihydrochloride]
~2000 µg/mL
O=S(=O)(CCCCOc1ccc2[nH]c3nc(O)nc-3cc2c1)C1CCN(Cc2ccccc2)CC1 [Cmpd 18b, dihydrochloride]
~5000 µg/mL
